Sourced from the DeepSol protein solubility set

# method-notes: soluble on expression in E. coli; label from the status in PepcDB or PDB records
property: soluble on expression in E. coli

MASMTGGQQMGRIPGNSPRMVLLESEQFLTELTRLFQKCRSSGSVFITLKKYDGRTKPIPRKSSVEGLEPAENKCLLRATDGKRKISTVVSSKEVNKFQMAYSNLLRANMDGLKKRDKKNKSKKSKPAQGGEQKLISEEDDSAGSPMPQFQTWEEFSRAAEKLYLADPMKVRVVLKYRHVDGNLCIKVTDDLVCLVYRTDQAQDVKKIEKFHSQLMRLMVAKESRNVTMETE: soluble
MDVSFEFEHYQVRLIKSSDAVTIANYFMRNRHHLAPWEPKRSHAFFTPEGWKQRLLQLVELHKHNLAFYFVVVDKNEHKIIGTVSYSNITRFPFHAGHVGYSLDSEYQGKGIMRRAVNVTIDWMFKAQNLHRIMAAYIPRNEKSAKVLAALGFVKEGEAKKYLYINGAWEDHILTSKINDDWKP: soluble
MGSDKIHHHHHHMLQAFATQYIVESLGCETEIIDYTADRFNKHYPLDLGLFRFLIDAYQEKKKKAARTKFNDATFQNNIAKRKTSYVEFIHRRLHNIKEVSGFSNLCKLGSEYDAVLIGSDQKWHPGFSFGVDSSFRFVPKSVRTISYATSLGVSEYPKSYWRTSRKAWSRIDYLSVREKTGADIISKVCDNNIHAEVVVDPTYLISCEDWKKIFPVEKKFEDKYIFCYFLGNDEESKKCARRYANLKGLKLVSVVSNESYSEIDQEYADFLMTGESPDSFVNWIRGAECVFTDSFHGTAFSIMNEKQIYVFYRKNTGVKLQRHSRIDDILSLWEIKYRLITDKHREWDSYQEQPIDYTLVTQKVQSERERSMKFLKAALTF: not soluble
MYQVIRMYGAMEPWWFLDDWKEDITKVLEFDNYHEALQCYQKEWAKLRRRYSDFNSHGDIMTAFWNKQDQHWCEECGDYVQRYHSLALLTDWQETPSSWFRPTFTKQLEHHHHHH: soluble

**Query** Can you look up the measured soluble on expression in E. coli of GVVGSDARSRGRVPGYASSSLYRESGIISARQLALLQRMLPRLRLEQLFRCEWLQQRLARGLALGREEVRQILLCAAQDDDGWCAELGDRVNLAVPQSMIDWVLLPVYGWWESLLDQAIPGWRLSLVELETQSRQLRIKSEFWSRVAELEPEQAREELARVAKCQARTQEQVAELAGKLETASALAKSAWPNWQRGMATLLASGGLAGFEPIPEVLECLWQPLCRLDDDVGAADAVQAWLHERNLCQAQDHFYWQS for me?
**Result** soluble

**Query** # query: soluble on expression in E. coli of entry MMLRTEEMILNVGPQHPSTHGVFRLILKIDGEIIQEATPVIGYLHRGTEKIAEGLQYTQIIPYTDRMDYLSAMTNNYVLCHAVETMMGIEVPERAEYLRVLAMELGRIASHLVWWGTYLLDLGATSPFLYAFREREMIINLLNELSGARLTFNYMRIGGVKWDAPDGWIDKVKQFVPYMREKLHGYHELVTGNEIFRQRVTGVGRYTKEEAISYSLSGVNLRSTGVKWDLRKDEPYSIYDRFDFDVPVRDSGDCLARYECRMAEIEQSLCIIEQACEQFPPEGPIMGKVPRIIKAPPGETFVRIEAPRGEIGCYIASDGKKEPYRLKFRRPSFYNLQILPKLLKGENLANVIAILGSIDIVLGEVDG
**Result** not soluble

* * *

# method-notes: soluble on expression in E. coli; label from the status in PepcDB or PDB records
property: soluble on expression in E. coli

ITLNSEPKCINNIKSGQYERYDTNNTELNRVLGGGLVKGSITLISGAPGIGKSTLLLQICQDIALKYGKVLYVSGEESEHQIKMRGDRLGVTSANIYILAETNMESIERHVENIKPAFVIIDSIQTLYKDQITSAPGSVSQVRECANDIMRIAKTDNIPFFIVAHVTKQGELAGPRVLEHIVDTVLTFEGQRTEEFRILRTVKNRFGTTSEIGVFEMKEEGL: not soluble
MFSKSSNRFGTTSIFGDQSIKDEYRNRQRRLSLIGGPISGTSPNRRESLVRELRTVSLHQYTEDPTLAWEMLKEKRPVKPVRQMRLDTPVKPDHVRFVCIGCTHGEQFDISKLPPGDVLLVAGDFTSCGLPNEVHNFNKLLGKLKYSYKVVIGGNHECTFDDTFLKLKQESEPKEMALKQALLSAIHSDSKGGISAKDLLSNAIYLEDNVIELFGITIYGTPWQPKVDNWAFNLSRGQQLLDKWNLIPAALTCF: not soluble
MGSDKIHHHHHHMYNVGGVVLKRYFVAPGRINVIGEHTDYNEGFVLPVAIDKYVLLSVEKTSGSKISLSSMGREPVSFDESKIQKTGDWSDYLKGVLWVLKDELGTEFGGMSIEINSNLPEGAGLSSSAAVEVAMIVALNSSFNLKLDETELYDYARKAENEFVGVKCGVMDQFAAVMGKKDKAIFLDTLEMRYEYVPLELGDYTFLVFDSKVHHSLSKGGYNTRREEARKALEILGKSSYRDVSMVDLFPNRSRLGELYYRRALHVVSENMRVLESVKIMSNSNFENLGRLLIQSHESLALDYEVSCDETDFIVNTLREMKGVSGARMIGAGFGGSVLSLCEKEEEKKIVEVIKTRYKERFGIDLDSYEVRTSDGAREVDSSFSL: not soluble

* * *

# method-notes: soluble on expression in E. coli; label from the status in PepcDB or PDB records
property: soluble on expression in E. coli

MKIALIGATGHVGHYFLNEALQRGHAVTALVRDPSKLAARDGLCVVQADVSDPAQVASAVAGHEVVISAFNGGWGSADLRARHAAGSQAILDGVKRSGVPRLLVLGGAGSLEIAPGQRLVDSPEFPEQWKQGALGAADALDQLRGEQRLDWVFLSPAMLLEPGQRSGKFRLGGDQVLFDAKGESRISLEDLAVAMLDEAEQPRHHRQRFTVAYLEHHHHHH: soluble
MKLSEIYNFLDQLSPFNIQESWDNSGILLGDRDSEISTVYLSLDIDENIIKEASENSLIITHHPLIFKGLKDLYDKTYPRAFIKEMIYKNISLISMHTNYDLSHLNTYFTEEILGFKISFKDKFLIYVENSMSFEALCDWVKKKLNLQILRVSDCGKKDIKRIAICTGSGGDLISKVDADCFLSGDFKYHQALEALSNQISLIDLGHFESERYFSQCLAKDLKNLPLQVIITVSKNPFQYFLEHHHHHH: soluble
MALEPIDYTTHSREIDAEYLKIVRGSDPDTTWLIISPNAKKEYEPESTGSSFHDFLQLFDETKVQYGLARVSPPGSDVEKIIIIGWCPDSAPLKTRASFAANFAAVANNLFKGYHVQVTARDEDDLDENELLMKISNAAGA: soluble
MSLVDFIDDNRGEFGVEPICTVLRSAGLQVALSTYYDAKARVPSARALRDAVLGPALCQLWKDNYCVYGARKLWKTARRDGHDVGRDQVARLMRAAGIEGVRRGKRVRTTKADPAAARHPDLVHRNFAAAAPNQLWATDLTFVPTWAGVAYVCFIIDAHSRMIVGWRVASHMRTSMVLDALEMARWSRGTTLQDLICHSDAGSQFTSIRYGERLAEIGAVPSIGTVGDSFDNALAETVNGYYKAELIYGPARSRPWKTVEDVELATLSWVHWHNTSRLHSYLGDIPPTEFEAAFYDAYRTDQPLIGIQEGHHHHHH: not soluble
MGSDKIHHHHHHMQDDRLFPYGHARGAGWREALSSALEMAGPRVRGGTLGFLYVTDSFESDLPDILSAVREQTGVPHWTGCVGAGICATAQEYLDEPALAFMVTDFPETEFRLFAGMGPYRTGKSWPTGPGRPPYFAIVHGDSQTPDLPDLVRDFAGQMGSGFITGGICSSRTDGAQLVDEVVHGGLSGVTFSENIAVATRLTQGCSPIGPIHHINEAHNNVISRLDDRPALDVFNDETCDILSRDLQRAAGFIFVAMPVKNDDRGDYMVRTLVGIDIERKLLAIGEYAEAGQSLMFCKRDSGTAGEDLERMLSDISRLADGRKIRGGLYFTCVWRGQNLFGPDSAELRMIRDGLGDFPLVGFFANAEISHDKIYGYTGVLTLFLDAPTS: not soluble

Please look at the following sequence next.
**Query** Fill blank: measured soluble on expression in E. coli of the sequence MNIQCKRVYDPAEQSDGYRILVDRLWPRGIKKTDLALDEWDKEITPSTELRKAFHGEVVDYATFREQYLAELAQHEQEGKRLADIAKKQPLTLLYSAKNTTQNHALVLADWLRSL is ____.
**Result** soluble

* * *

# method-notes: soluble on expression in E. coli; label from the status in PepcDB or PDB records
property: soluble on expression in E. coli

Examples with answers:
GSNSLMERIHEQIKKGELALFYLQEQINHFEEKPTKEMKDKIVAEMDTIIAMIDGVRGVLDRLMQRKDLDIFEQYNLEMAKKSGDILERDLKKEEARVKKIEV: soluble
MALPQRQIVRAENVKIGISWQCALCDLDIYARPLPGAEVIYFGRMVTTHGRYWKDYRNSPQPTNGYETISFDVPLDLRPVVIAINFYEGEAPQGVSGEIRIAVDENTYAAPFHISATRGNRGQGVAKIIETGKASGNHSVIVDPLHIIRAR: not soluble
MGNQLDRITHLNYSELPTGDPSGIEKDELRVGVAYFFSDEEEELDDRSQSDSFKDNNSPSKDGPVARNEIEYTAFCCQECIYSKLRENEDLNVYSVKTLLTMCKPGDLLELVANAQPPHWAIFEGEDQVIHLYKGEIRKDSLFEISCGRQARIVNNRYRYRPLPADLVMQNASGHVGLSSGEICWTNSESFAAWCRFGKREFKAGGEVHSVEQRYFLKVHLSESTAHTLMFRSLEEMIRERRRVDASGILKELSLVTGKE: not soluble
METKPYLIALDLDGTLLKDDKTISENTLHTIQRLKDDGHYVCISTGRPYRSSSMYYQQMELTTPIVNFNGAFVHHPQDDSWGRYHTSLPLDVVKQLVDISESYNVHNVLAEVIDDVYFHYHDEHLIDAFNMNTTNVTVGDLRENLGEDVTSVLIHAKEEDVPAIRSYLSDVHAEVIDHRRWAAPWHVIEIIKSGMNKAVGLQKISDYYGVPRERIIAFGDEDNDLEMLEFAGCGVAMGNGIDAVKQIANRTTATNEEDGVARFLKEYFSL: soluble

**Query** If you can, please state the reported soluble on expression in E. coli value of MGSDKIHHHHHHMTGQNPAPDEIVIDTGNPHPARMYDWFLGGKDNYPVDEEMGRQLLALDPRVPVMAKVNRAFMHRATRWLAMNGVRQFLDIGTGIPTEPNLHQIAQQVAPESRVVYCDNDPIVLAHAAALLRSTPEGVTEYVQADVRDPDTIVEQAGKVLDFSKPVALSLVALLHFVSDEDGAYELVDRLLAEVPSGSYLMLSHATADFTPKKSEEAGELYKARSLTLALRSRDEVARFFRDLELVEPGVEVPDKWRPELGEPVPGQDDEPIPGYAAVGRKP .
**Result** not soluble

**Query** Quick one: soluble on expression in E. coli for GPGSMQRLFFRSTCARVRCADLRLKPPVSIPQVTFQTVAFSSSAAGAAVRSGAEGTNTTTKRRSGFGGGAGGGGPVKDRYPPPATDLGDPRRRLAVLVDASSVDPRVFRNTILPAALKVGTPVLIRIFSVQLSSEWEPLVAGSGGTRESATSTEPEWKTSGTANDGREEVSGAAGSRDSGAWCPPVEFFRVERFIPVPMQMEADANHIFDFRKQNQIEAVAFVCGEVDRGVFEGFLPNIAGNGFNQYVLDELGMAKEVLEDGRSEDGTPTVQK ?
**Result** soluble

**Query** Which value of soluble on expression in E. coli has been reported for IEDEVIYSKKRYKLKREIDKLFLDEEYFQIEPQLFEEYDEFTTINNKIPEESMVKVVNGKVMVLRADITTSIIKSLVPRWEDGLKLKLFYNSSIYKNKNTVGIKEIRQIGCEYLGEASVEADREVVKLALKILEKYNNNFILEVGSSKYIHGLLEELNLNKNCENQIKNLLYTKNTHELKVYIEELKIKHEVKELLSNILSLQGNLYNVIEKSNKFYCNNKMKQALEELKQVNNLIEECNFLDKARFDLSMITMLDYYEGIMFRGYYPNSYKEILSGGRYDSLTKEYGKEIPAIGFTLSVDELMKYVYK in the records?
**Result** not soluble

**Query** Can you look up the measured soluble on expression in E. coli of RKQAEEKLVASERFLRMLTNQLPGMVGYWDRDLRCRFANDAYKEWFGRSPEQIIGLTVQELMGEELFRLSEPYIRGALQGEPQNFERELVKPNGETGYTWAQYIPDMVNDKAIGFFVLISDVT for me?
**Result** not soluble

**Query** Requested field: soluble on expression in E. coli. Item: MLFATSGSGSMLQSWNLKTSKRTGSFDAKSSINAVAISPDGNTLATGIRDNAIKLWNINDGKLIHTLTGHQGQVRTVAFSPDGTLLASGSSDGTVKLWNATTGKEINTFTAHKEQVWSVAFNPDGKTLASTGQDGSVKIWGVSPQLEHHHHHH
**Result** soluble
